Collected normalized growth values appear next to each entry.
# Assay Details: chemical genetic growth profiling, strain panel (AID 1159580);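 note: tested at 20 µM; growth read once vehicle control cultures reached saturation at 30 °C; 1 = growth at the plate median or of vehicle wells; lower values mean less growth of the strain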
# Condition Notes: S. cerevisiae deletion strains, growth OD, locus YDL101C, strain DUN1, active compounds read low
Out of some 5,500 compounds screened, about 2,000 (36%) were called active. Not shown: some 18% with an inconclusive outcome. The list shows a part of the results.
Readout Name: normalized growth

INSERT INTO assay_data (compound, quantitative_readout) VALUES
  ('C=CCCCCCCCCCCCC(O)CC(O)COC(C)=O (stereo unspecified) (tested in a mixture with another compound)', 0.983),
  ('COC(=O)c1sccc1NC(=O)C1CC1', 0.995),
  ('O=[N+]([O-])c1ccc(N2CCCN(C(=S)Nc3ccc(Cl)cc3Cl)CC2)nc1', 0.942),
  ('CCc1ccn2cc(Nc3ccccc3Cl)nc2c1', 0.982),
  ('CCCc1cnc(N2CCCN(C(=S)Nc3cccnc3)CC2)nc1', 1.06),
  ('COC(=O)C1=C(C)NC(C)=C(C(=O)OC)C1c1ccc(-c2ccsc2C(=O)OC)o1', 1),
  ('O=[N+]([O-])c1ccc2c(c1)NC(c1ccc([N+](=O)[O-])s1)O2 (stereo unspecified)', 0.0673),
  ('Nc1ccc(C(=O)/C(=C\c2cccc([N+](=O)[O-])c2)C(=O)c2ccc(-c3ccccc3)cc2)cc1', 0.997),
  ('C#CCCCCCCCCCCCC(O)CC(O)COC(C)=O (stereo unspecified)', 0.975),
  ('COC(=O)c1sccc1-c1ccc(C(C)=O)o1', 0.953),
  ('CC(C)(C)c1ccc(C(=O)Nc2ccc(C(F)(F)F)cc2)s1', 1.01),
  ('Oc1ccc2c(c1)OCC1c3cc4c(cc3OC21)OCO4 (stereo unspecified)', 0.987),
  ('CSC(=NC#N)N1CCN(c2ccc([N+](=O)[O-])cn2)CC1', 1.02),
  ('CC(C)COCC(CN(Cc1ccccc1)c1ccccc1)N1CCCC1 (stereo unspecified)', 0.926),
  ('N#C/C(=C\c1cccn1-c1ccc(OC(F)(F)F)cc1)S(=O)(=O)c1ccccc1', 0.982),
  ('C#CCCCCCCCCCCCC(=O)CC(O)COC(C)=O (stereo unspecified)', 0.84),
  ('FC(F)(F)c1ccnc(N2CCCN(C(=S)Nc3ccc(Cl)cc3Cl)CC2)n1', 0.975),
  ('CC1(C)C2CC(=O)[C@]3(C)C(CC[C@@]4(C)[C@H](c5ccoc5)OC(=O)[C@H]5O[C@]543)[C@@]2(C)C=C[C@@H]1O (stereo partly specified)', 0.994),
  ('OC(CN1CCN(c2nc3ccc(Cl)cc3s2)CC1)Cn1ccc2ccccc21 (stereo unspecified)', 0.989),
  ('COc1cc([C@@H]2c3cc4c(c(O)c3C[C@H]3COC(=O)[C@@H]32)OCO4)cc(OC)c1OC', 0.985),
  ('OC(CN1CCN(c2nc3ccc(Cl)cc3s2)CC1)CN1CCCN(c2ncc(C(F)(F)F)cc2Cl)CC1 (stereo unspecified)', 1.03);

---

# Assay Details: chemical genetic growth profiling, strain panel (AID 1159580);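 note: tested at 20 µM; growth read once vehicle control cultures reached saturation at 30 °C; 1 = growth at the plate median or of vehicle wells; lower values mean less growth of the strain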
# Condition Notes: S. cerevisiae deletion strains, growth OD, locus YNL322C, strain KRE1
The whole screen tested about 5,500 compounds, of which about 2,000 (36%) were called active. Not shown: some 18% with an inconclusive outcome. Cut-off read from the data, not from the text of the source: active = normalized growth mostly below about 0.91 (no sharp cut-off); inconclusive = no clear call, values can overlap the other calls; inactive = mostly above about 0.92. This is one part of the list.
Possible outcomes: true (active), false (inactive)

INSERT INTO assay_data (compound, label_value) VALUES
  ('Cc1cc(NC(=O)C2=C(O)c3ccccc3S(=O)(=O)N2C)no1', 'false'),
  ('N#CCC(=O)Nc1ccccn1', 'false'),
  ('CC(=O)OCC[C@H](C)CCC=C(C)C', 'false'),
  ('CC(=O)OC1CCC2(C)C(=CC=C3C2CCC2(C)C3CCC2C(C)/C=C/C(C)C(C)C)C1(C)C (stereo not drawn)', 'false'),
  ('Oc1ccc(Cl)cc1Cc1cc(Cl)ccc1O', 'true'),
  ('O=c1cc[nH]c(=S)[nH]1', 'false'),
  ('CSC(=NS(=O)(=O)c1ccccc1)SC', 'false'),
  ('C[N+]1(C)C2CC(OC(=O)C(CO)c3ccccc3)CC1C1OC12 (stereo not drawn)', 'false'),
  ('CCCN1CCC[C@@H](c2cccc(C#N)c2)C1', 'false'),
  ('CC(C)(C)C1(O)CCN2CC3c4ccccc4CCc4cccc(c43)C2C1 (stereo not drawn)', 'false'),
  ('C=C1C(=O)OC2CC1C(OC(C)=O)C/C(C)=C/CC/C(C)=C/CC[C@]2(C)O (stereo partly drawn)', 'false'),
  ('CCCCOC(=O)c1ccc(N)cc1', 'false'),
  ('O=C(O)c1ccccc1-c1c2cc(Br)c(=O)cc-2oc2[c]([Hg])c(O)c(Br)cc12', 'true'),
  ('CCCCOC(=O)c1ccccc1C(=O)OCc1ccccc1', 'false'),
  ('C[C@@H]1O[C@H](C[N+](C)(C)C)CS1', 'false'),
  ('C#CCCCCCCCCCCCC(=O)CC(O)COC(C)=O (stereo not drawn)', 'false'),
  ('Nc1ccc(N=Nc2ccc(S(N)(=O)=O)cc2)c2ccccc12', 'false'),
  ('COC(=O)C(C)c1ccc(C(=O)c2cccs2)cc1 (stereo not drawn)', 'false'),
  ('Oc1ccc(Cl)cc1', 'false'),
  ('CN1CCc2cccc(Cl)c2CC1', 'false'),
  ('Cc1ccc(NC(=S)NCCO)c(C)c1', 'false'),
  ('COC(=O)C1=C(C)NC(C)=C(C(=O)OC)C1c1ccc(-c2ccsc2C(=O)OC)o1', 'false'),
  ('CC(=O)CC(=O)Nc1ccccc1Cl', 'false'),
  ('COCCCNC(=S)Nc1ccc(C)cc1C', 'false'),
  ('C#CCCCCCCCCCCCC(O)CC(O)COC(C)=O (stereo not drawn)', 'false'),
  ('CCN(CC)C(=O)c1cccc(C)c1', 'false'),
  ('CC1CNCCN1S(=O)(=O)c1cccc2cnccc12 (stereo not drawn)', 'false'),
  ('CC(C)NC[C@H](O)COc1cccc2ccccc12', 'false'),
  ('c1ccc(-c2cc3c(ccc4nonc43)nn2)cc1', 'false'),
  ('C=C1CCC(OC(C)=O)/C(C)=C/C[C@@H]2[C@@H]1CC2(C)C (stereo partly drawn)', 'false'),
  ('COC(=O)c1sccc1-c1ccc(C(C)=O)o1', 'true'),
  ('COc1ccc(C(C)=O)cc1CSC(=NS(=O)(=O)c1ccccc1)Nc1cccc(F)c1', 'false'),
  ('CCOC(=O)Nc1ccsc1C(=O)OC', 'false'),
  ('COC(=O)c1sccc1NC(=O)C1CC1', 'false'),
  ('CC(=O)OCC(COC(C)=O)OC(C)=O', 'false'),
  ('Oc1cc2c(cc1O)CN(C(=S)NCCc1ccc(Cl)cc1)CCC2', 'false'),
  ('COC(=O)C1=CCCN(C)C1', 'false'),
  ('CC(C)NCC(O)COc1cccc2ccccc12 (stereo not drawn)', 'false'),
  ('CCCCCCOc1ccccc1C(N)=O', 'true'),
  ('O=C1OC(c2ccc(O)cc2)(c2ccc(O)cc2)c2ccccc21', 'false'),
  ('CC1(C)OC(=O)C=CC2(C)C1CC(O)C1(C)C2CCC2(C)C(c3ccoc3)OC(=O)C3OC321 (stereo not drawn)', 'false'),
  ('Cc1cccc2c1N(C(=S)Nc1ccccc1Cl)CCC2', 'false'),
  ('CCCN1CCC[C@H](c2cccc(O)c2)C1', 'false');
